Reference source for all entries: patent EP1899377B1

Each entry below carries its recorded kon.
- tested_system: T1, GST-human NOGO-A56 (human, UniProt Q9NQC3 586-785)
- T1 construct: GST-tagged fusion expressed in E. coli BL21 from pGEX-6P1; also called hNOGO; human NOGO 5+6 GST; not shown: Glutathione S-transferase tag encoded by vector pGEX-6P1 (N-terminal, with vector linker)
- T1 sequence: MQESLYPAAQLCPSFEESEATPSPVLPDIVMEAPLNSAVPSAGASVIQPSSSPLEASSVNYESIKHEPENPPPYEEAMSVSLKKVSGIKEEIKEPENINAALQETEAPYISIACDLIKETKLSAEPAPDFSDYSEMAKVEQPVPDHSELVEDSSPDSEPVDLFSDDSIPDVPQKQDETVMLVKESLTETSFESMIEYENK
- experiment_description: SPR (Biacore), GST-human NOGO-A56 immobilised, purified antibody as analyte; single experiment
Kindly answer with a numeric value in M⁻¹ s⁻¹, unit omitted.

Prompt line: What does the record list as kon for H20L16 (antibody, human IgG1, kappa, V domains shown, human gamma1 mutated constant region, human kappa; also called H20L16 FL) VH: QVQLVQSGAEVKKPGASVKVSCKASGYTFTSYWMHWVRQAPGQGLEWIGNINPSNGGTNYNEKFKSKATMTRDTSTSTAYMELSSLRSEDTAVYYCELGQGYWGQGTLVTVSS VL: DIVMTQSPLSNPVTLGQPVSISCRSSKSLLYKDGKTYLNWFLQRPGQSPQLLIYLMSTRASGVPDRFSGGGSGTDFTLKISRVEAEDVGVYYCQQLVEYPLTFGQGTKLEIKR ?
Response line: 4.4e+06

Prompt line: And for H22L16 (antibody, human IgG1, kappa, V domains shown, human gamma1 mutated constant region, human kappa) VH: QVQLVQSGAEVKKPGASVKVSCKASGYTFTSYWMHWVKQRPGQGLEWIGNINPSNGGTNYNEKFKSKATMTRDTSTSTAYMELSSLRSEDTAVYYCELGQGYWGQGTLVTVSS VL: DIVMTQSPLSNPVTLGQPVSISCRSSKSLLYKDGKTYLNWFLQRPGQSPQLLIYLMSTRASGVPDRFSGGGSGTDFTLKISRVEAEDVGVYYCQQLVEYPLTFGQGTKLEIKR ?
Response line: 4.9e+06

Prompt line: And for H23L16 (antibody, human IgG1, kappa, V domains shown, human gamma1 mutated constant region, human kappa) VH: QVQLVQSGAEVKKPGASVKVSCKASGYTFTSYWMHWVKQRPGQGLEWIGNINPSNGGTNYNEKFKSKATMTVDTSTSTAYMELSSLRSEDTAVYYCELGQGYWGQGTLVTVSS VL: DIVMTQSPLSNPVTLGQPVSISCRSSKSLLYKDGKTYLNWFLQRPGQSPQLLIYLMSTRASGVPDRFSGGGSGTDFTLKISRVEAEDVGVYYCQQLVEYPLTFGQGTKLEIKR ?
Response line: 1.9e+06

Next:
Prompt line: What does the record list as kon for HcLc (antibody, human IgG1, kappa, V domains shown, also called chimera of 2A10; 2A10 chimeric antibody) VH: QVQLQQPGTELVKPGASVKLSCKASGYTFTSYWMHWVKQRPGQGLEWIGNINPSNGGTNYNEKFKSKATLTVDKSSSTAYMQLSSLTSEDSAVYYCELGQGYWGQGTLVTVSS VL: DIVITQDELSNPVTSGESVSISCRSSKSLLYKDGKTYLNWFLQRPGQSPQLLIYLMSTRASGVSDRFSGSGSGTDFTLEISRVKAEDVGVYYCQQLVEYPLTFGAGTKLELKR ?
Response line: 2.6e+06

Prompt line: And for H1L11 (antibody, human IgG1, kappa, V domains shown) VH: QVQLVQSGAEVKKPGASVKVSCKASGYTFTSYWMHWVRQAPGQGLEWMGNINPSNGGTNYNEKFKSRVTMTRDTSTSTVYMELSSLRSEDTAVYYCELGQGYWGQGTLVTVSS VL: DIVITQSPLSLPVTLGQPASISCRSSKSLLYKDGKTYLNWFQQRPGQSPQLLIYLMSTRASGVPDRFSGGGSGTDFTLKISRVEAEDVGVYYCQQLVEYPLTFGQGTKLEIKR ?
Response line: 1.4e+06

Prompt line: And for H24L16 (antibody, human IgG1, kappa, V domains shown, human gamma1 mutated constant region, human kappa) VH: QVQLVQSGAEVKKPGASVKVSCKASGYTFTSYWMHWVKQRPGQGLEWIGNINPSNGGTNYNEKFKSKATLTVDTSTSTAYMELSSLRSEDTAVYYCELGQGYWGQGTLVTVSS VL: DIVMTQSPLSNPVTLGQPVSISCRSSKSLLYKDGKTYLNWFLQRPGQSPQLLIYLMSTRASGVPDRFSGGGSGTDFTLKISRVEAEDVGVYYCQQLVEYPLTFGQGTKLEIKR ?
Response line: 1.9e+06
